The values you see were collected from PubChem BioAssay AID687014.

System: Nuclear hormone receptor DAF-12 (Heterodera glycines), GAL4 fusion
Experiment: H. glycines DAF-12 receptor agonists, primary screen, cell-based, luminescence, HEK293, GAL4 fusion, UAS-luciferase (AID 687014);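 note: 0% = DMSO wells and 100% = sodium butyrate wells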
Details: HEK293 GAL4-hgDAF12 UAS-luciferase reporter, agonist luminescence; at 6.8 µM; active compounds read high; normalized to butyrate control
The campaign covered roughly 370,000 compounds. About 6,800 (1.8%) were called active. This excerpt belongs to a sample that is enriched for actives.
Kindly state activation for each of the entries shown.
Answer format: numeric, % implied, no suffix.

IN: Entry Oc1cccc2ccc(/C=C/c3ccc(Br)s3)nc12 , system Nuclear hormone receptor DAF-12 (Heterodera glycines), GAL4 fusion: what activation was measured?
OUT: 20.9

IN: Entry C[C@@H]1CN([C@H](C)CO)S(=O)(=O)c2ccc(C#C[C@@H](C)O)cc2O[C@@H]1CN(C)Cc1ccc(-c2ccccc2)cc1 , system Nuclear hormone receptor DAF-12 (Heterodera glycines), GAL4 fusion: what activation was measured?
OUT: 2.28

IN: Entry COc1ccc(N=C(C)c2sc3ccccc3c2O)cc1 , system Nuclear hormone receptor DAF-12 (Heterodera glycines), GAL4 fusion: what activation was measured?
OUT: 13.8

IN: Entry Cc1cc(C)cc(NC(=O)NC2CCCCCCC2)c1 , system Nuclear hormone receptor DAF-12 (Heterodera glycines), GAL4 fusion: what activation was measured?
OUT: 5.46

IN: Entry COC1=C[C@H](C(=O)NCCNC(C)=O)[C@H](C)[C@@H](c2ccccc2)CC1=O , system Nuclear hormone receptor DAF-12 (Heterodera glycines), GAL4 fusion: what activation was measured?
OUT: -1.27

IN: Entry CC(=O)c1cccc(NC(=O)[C@@H](NC(N)=O)C(C)C)c1 , system Nuclear hormone receptor DAF-12 (Heterodera glycines), GAL4 fusion: what activation was measured?
OUT: -2.72

IN: Entry Cc1nc2nc(SCC(=O)Nc3cccc(F)c3)[nH]c2cc1Br , system Nuclear hormone receptor DAF-12 (Heterodera glycines), GAL4 fusion: what activation was measured?
OUT: 0.38

IN: Entry CCSc1nsc(NC(=O)Nc2cccc(C(C)=O)c2)n1 , system Nuclear hormone receptor DAF-12 (Heterodera glycines), GAL4 fusion: what activation was measured?
OUT: 8.65

IN: Entry CCOc1ccc(-n2c(SCC(=O)Nc3cc(C)c(NC(=O)c4ccccc4)cc3OC)nnc2-c2cccs2)cc1 , system Nuclear hormone receptor DAF-12 (Heterodera glycines), GAL4 fusion: what activation was measured?
OUT: 7.81

IN: Entry Cc1cccc(NC(=O)c2cc3c(C)nn(-c4ccccc4)c3s2)c1 , system Nuclear hormone receptor DAF-12 (Heterodera glycines), GAL4 fusion: what activation was measured?
OUT: 3.47

IN: Entry O=C(NCC1COc2ccccc2O1)c1ccc(NC(=O)c2cc(F)ccc2F)cc1 (stereo unspecified) , system Nuclear hormone receptor DAF-12 (Heterodera glycines), GAL4 fusion: what activation was measured?
OUT: -2.39

IN: Entry CCOC(=O)[C@]12CCCCC/C=C\1N(Cc1ccc(OC)cc1)C(=O)[C@H]2CC(=O)NCCCN1CCCC1=O , system Nuclear hormone receptor DAF-12 (Heterodera glycines), GAL4 fusion: what activation was measured?
OUT: 3.26

IN: Entry FC(F)(F)c1cccc(-c2cc3ccccc3nc2N2CCCC2)c1 , system Nuclear hormone receptor DAF-12 (Heterodera glycines), GAL4 fusion: what activation was measured?
OUT: -1.35

IN: Entry Cc1ccc(-c2nnc(SC(C)C#N)n2N)cc1 (stereo unspecified) , system Nuclear hormone receptor DAF-12 (Heterodera glycines), GAL4 fusion: what activation was measured?
OUT: -2.55

IN: Entry COCC1CCCN(Cc2nc(-c3ccc4c(c3)OCO4)no2)C1 (stereo unspecified) , system Nuclear hormone receptor DAF-12 (Heterodera glycines), GAL4 fusion: what activation was measured?
OUT: 6.75

IN: Entry CCC(c1nc2ccccc2[nH]1)n1c(=O)c(-c2cccs2)nc2ccccc21 (stereo unspecified) , system Nuclear hormone receptor DAF-12 (Heterodera glycines), GAL4 fusion: what activation was measured?
OUT: 1.53

IN: Entry CCN(C(=O)CSc1cccc[n+]1[O-])c1ccccc1 , system Nuclear hormone receptor DAF-12 (Heterodera glycines), GAL4 fusion: what activation was measured?
OUT: -0.46

IN: Entry CC1CC(C)CN(CCC(=O)Nc2ccc3c(c2)CCC3)C1 (stereo unspecified) , system Nuclear hormone receptor DAF-12 (Heterodera glycines), GAL4 fusion: what activation was measured?
OUT: -2.86

IN: Entry N#Cc1ccc(OCCCN2CCC(C(O)(c3ccccc3)c3ccccc3)CC2)c(F)c1 , system Nuclear hormone receptor DAF-12 (Heterodera glycines), GAL4 fusion: what activation was measured?
OUT: 0.54

IN: Entry CC(C)Oc1ccc(C(=O)NCC(=O)Nc2ccc3c(c2)CCC3)cc1 , system Nuclear hormone receptor DAF-12 (Heterodera glycines), GAL4 fusion: what activation was measured?
OUT: 2.22

IN: Entry Cc1ccc(-c2nc(C3CCCN(S(=O)(=O)c4ccc(Br)s4)C3)no2)cc1 (stereo unspecified) , system Nuclear hormone receptor DAF-12 (Heterodera glycines), GAL4 fusion: what activation was measured?
OUT: 1.98

IN: Entry FC(F)(F)c1cccc(-c2nc3ccccc3n2C(c2ccccc2)c2nc3ccccc3[nH]2)c1 (stereo unspecified) , system Nuclear hormone receptor DAF-12 (Heterodera glycines), GAL4 fusion: what activation was measured?
OUT: 10.7

IN: Entry CCOC(=O)c1cc(-c2ccc(Cl)s2)nc2c1c(C)nn2C , system Nuclear hormone receptor DAF-12 (Heterodera glycines), GAL4 fusion: what activation was measured?
OUT: -0.72

IN: Entry COC(=O)N1Cc2ccnnc2CC1c1ccccc1Br (stereo unspecified) , system Nuclear hormone receptor DAF-12 (Heterodera glycines), GAL4 fusion: what activation was measured?
OUT: 0.66

IN: Entry COc1ccc(C#CCNCc2ccc(OC)cc2OC)cc1 , system Nuclear hormone receptor DAF-12 (Heterodera glycines), GAL4 fusion: what activation was measured?
OUT: -1.32

IN: Entry C[C@]12CCC(=O)C=C1C=CC1C2CC[C@@]2(C)C1CC[C@@]21CCC(=O)O1 (stereo partly specified) , system Nuclear hormone receptor DAF-12 (Heterodera glycines), GAL4 fusion: what activation was measured?
OUT: -2.47

IN: Entry C[C@@H]1CN([C@@H](C)CO)C(=O)c2cccc(NC(=O)Nc3cccc4ccccc34)c2O[C@H]1CN(C)S(=O)(=O)c1ccccc1F , system Nuclear hormone receptor DAF-12 (Heterodera glycines), GAL4 fusion: what activation was measured?
OUT: -4.71

IN: Entry COc1ccc(OCc2cc(C(=O)NCC3(C)COC3)no2)c(Cl)c1 , system Nuclear hormone receptor DAF-12 (Heterodera glycines), GAL4 fusion: what activation was measured?
OUT: 0.38

IN: Entry O=C(NCCCN1CCN(c2ccccc2F)CC1)C1CCC(=O)N1C1CCCCC1 (stereo unspecified) , system Nuclear hormone receptor DAF-12 (Heterodera glycines), GAL4 fusion: what activation was measured?
OUT: 0.6

IN: Entry Cc1cc(C)n2ncc(C(=O)Nc3ccc4c(c3)OCCO4)c2n1 , system Nuclear hormone receptor DAF-12 (Heterodera glycines), GAL4 fusion: what activation was measured?
OUT: 4.4

IN: Entry Cc1cc(NC(=O)C(C)N2C(=O)c3ccccc3S2(=O)=O)no1 (stereo unspecified) , system Nuclear hormone receptor DAF-12 (Heterodera glycines), GAL4 fusion: what activation was measured?
OUT: -0.78

IN: Entry Cc1[nH]c2ccccc2c1CC(=O)Nc1ccc(Nc2cccnc2)c(-c2cccc(Cl)c2)c1 , system Nuclear hormone receptor DAF-12 (Heterodera glycines), GAL4 fusion: what activation was measured?
OUT: -1.25

IN: Entry Cc1cc2c(nc1C)CCCN2C , system Nuclear hormone receptor DAF-12 (Heterodera glycines), GAL4 fusion: what activation was measured?
OUT: 0.83

IN: Entry CC1(C(=O)Nc2cccc(Oc3ccccc3)c2)CCN1Cc1ccccc1Cl (stereo unspecified) , system Nuclear hormone receptor DAF-12 (Heterodera glycines), GAL4 fusion: what activation was measured?
OUT: -0.38

IN: Entry Cc1cccnc1CC(C)NC(=O)c1cc(COc2cncc(Cl)c2)on1 (stereo unspecified) , system Nuclear hormone receptor DAF-12 (Heterodera glycines), GAL4 fusion: what activation was measured?
OUT: 1.14

IN: Entry CNC(=O)/C(=C\C=C\c1ccccc1)NC(=O)c1ccc([N+](=O)[O-])cc1 , system Nuclear hormone receptor DAF-12 (Heterodera glycines), GAL4 fusion: what activation was measured?
OUT: 1.17

* * *

Kindly state activation for each of the entries shown.
System: Nuclear hormone receptor DAF-12 (Heterodera glycines), GAL4 fusion
Test: H. glycines DAF-12 receptor agonists, primary screen, cell-based, luminescence, HEK293, GAL4 fusion, UAS-luciferase (AID 687014);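 note: 0% = DMSO wells and 100% = sodium butyrate wells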
Settings: HEK293 GAL4-hgDAF12 UAS-luciferase reporter, agonist luminescence; at 6.8 µM; active compounds read high; normalized to butyrate control
Out of some 370,000 compounds screened, about 6,800 (1.8%) were called active. What follows is part of a selection rich in actives, with near analogues and random picks from the rest.
Answer format: numeric, % implied, no suffix.

IN: Entry Cc1ccc(C(=O)Nc2ccc(C)c(S(=O)(=O)N(C)C)c2)s1 , system Nuclear hormone receptor DAF-12 (Heterodera glycines), GAL4 fusion: what activation was measured?
OUT: 17.3

IN: Entry Brc1ccc2nc(N3CCCC3)sc2c1 , system Nuclear hormone receptor DAF-12 (Heterodera glycines), GAL4 fusion: what activation was measured?
OUT: 14.3

IN: Entry CCc1ccc(CNC(=O)CCc2nc(-c3cccs3)no2)cc1 , system Nuclear hormone receptor DAF-12 (Heterodera glycines), GAL4 fusion: what activation was measured?
OUT: 1.81

IN: Entry COc1ccc(OC)c(CNC(=O)CCc2nc(-c3cccs3)no2)c1 , system Nuclear hormone receptor DAF-12 (Heterodera glycines), GAL4 fusion: what activation was measured?
OUT: -2.24

IN: Entry O=C(CNC(=O)c1ccccc1)OC(C(=O)Nc1cc([N+](=O)[O-])ccc1F)c1ccccc1 (stereo unspecified) , system Nuclear hormone receptor DAF-12 (Heterodera glycines), GAL4 fusion: what activation was measured?
OUT: 6.44

IN: Entry CN[C@H]1C[C@H]2c3cc(N4CCOCC4)ccc3CCN2C[C@H]1[C@H](C)O , system Nuclear hormone receptor DAF-12 (Heterodera glycines), GAL4 fusion: what activation was measured?
OUT: -0.47

IN: Entry COc1ccc(C(=O)N/N=C(\C)CC(=O)Nc2ccc(Cl)cn2)cc1 , system Nuclear hormone receptor DAF-12 (Heterodera glycines), GAL4 fusion: what activation was measured?
OUT: 0.32

IN: Entry Cc1ccc(NC(=O)c2csc3c2CCCC3)cc1 , system Nuclear hormone receptor DAF-12 (Heterodera glycines), GAL4 fusion: what activation was measured?
OUT: 23

IN: Entry CN1CCc2ccccc2C1Cc1ccccc1NC(=O)c1sc2ccccc2c1Cl (stereo unspecified) , system Nuclear hormone receptor DAF-12 (Heterodera glycines), GAL4 fusion: what activation was measured?
OUT: 5.85

IN: Entry O=C(Nc1ccon1)c1sc2ccccc2c1Cl , system Nuclear hormone receptor DAF-12 (Heterodera glycines), GAL4 fusion: what activation was measured?
OUT: 11.2

IN: Entry COc1ccc(CCc2nc(-c3cccs3)no2)cc1 , system Nuclear hormone receptor DAF-12 (Heterodera glycines), GAL4 fusion: what activation was measured?
OUT: 11.6
